Measured values drawn from patent US12103920B2 for this set.

- Assay System: AR protein in VCaP cells (Homo sapiens)
- Construct: endogenous in cells; host or cells: VCaP cells
- Sequence (P10275 whole entry): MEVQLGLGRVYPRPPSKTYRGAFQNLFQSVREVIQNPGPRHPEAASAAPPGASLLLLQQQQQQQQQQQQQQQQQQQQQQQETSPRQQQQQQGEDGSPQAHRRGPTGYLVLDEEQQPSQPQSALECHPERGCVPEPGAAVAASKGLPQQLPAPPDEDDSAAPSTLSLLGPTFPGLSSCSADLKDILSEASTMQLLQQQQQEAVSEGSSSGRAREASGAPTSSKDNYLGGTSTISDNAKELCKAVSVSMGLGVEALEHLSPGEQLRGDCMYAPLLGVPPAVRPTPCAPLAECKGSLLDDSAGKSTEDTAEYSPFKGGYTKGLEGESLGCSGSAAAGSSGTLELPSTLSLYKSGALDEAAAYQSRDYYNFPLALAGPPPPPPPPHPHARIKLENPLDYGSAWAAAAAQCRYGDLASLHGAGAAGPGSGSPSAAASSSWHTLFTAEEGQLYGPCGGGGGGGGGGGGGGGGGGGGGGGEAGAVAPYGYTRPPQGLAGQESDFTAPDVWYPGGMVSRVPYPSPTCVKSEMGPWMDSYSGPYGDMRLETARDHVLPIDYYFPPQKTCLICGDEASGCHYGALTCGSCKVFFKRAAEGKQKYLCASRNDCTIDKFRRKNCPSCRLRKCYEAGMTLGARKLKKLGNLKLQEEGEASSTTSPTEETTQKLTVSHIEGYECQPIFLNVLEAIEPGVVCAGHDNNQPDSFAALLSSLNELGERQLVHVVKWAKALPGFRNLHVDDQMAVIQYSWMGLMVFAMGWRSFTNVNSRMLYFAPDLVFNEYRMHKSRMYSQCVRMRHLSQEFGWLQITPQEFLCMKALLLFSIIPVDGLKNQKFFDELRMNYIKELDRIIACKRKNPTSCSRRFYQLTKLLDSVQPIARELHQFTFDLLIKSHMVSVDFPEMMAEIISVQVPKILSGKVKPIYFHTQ
- Measurement Protocol: VCAP AR Degradation Assay
- Assay type: cell-based
- Condition Context: 24 h, AR ELISA, concentration at 50% of DMSO control (50% AR degradation)
Counter-ions that a name gives are not always drawn.
Quick list: DC50 per entry.

Consider the following illustrative entries.
[[record]]
molecule = "C[C@@H]1CN(CCO[C@H]2CC[C@H](N3C(=S)N(c4ccc(C#N)c(Cl)c4)C(=O)C3(C)C)CC2)C[C@H](C)N1CC(=O)Nc1cccc(NC2CCC(=O)NC2=O)c1 (some centres unmarked) [Cmpd 4, hydrochloride]"
quantity_name = "DC50"
result_value = "≤ 5 nM"

[[record]]
molecule = "C[C@@H]1CN(CCO[C@H]2CC[C@H](N3C(=S)N(c4cnc(C#N)c(C(F)(F)F)c4)C(=O)C3(C)C)CC2)C[C@H](C)N1CC(=O)Nc1cccc(N[C@H]2CCC(=O)NC2=O)c1"
quantity_name = "DC50"
result_value = "< 1000 nM"

[[record]]
molecule = "C[C@@H]1CN(CCC[C@H]2CC[C@H](N3C(=S)N(c4cnc(C#N)c(C(F)(F)F)c4)C(=O)C3(C)C)CC2)C[C@H](C)N1CC(=O)Nc1cccc(NC2CCC(=O)NC2=O)c1 (some centres unmarked) [Cmpd 11, hydrochloride]"
quantity_name = "DC50"
result_value = "≤ 5 nM"

[[record]]
molecule = "C[C@@H]1CN(CCCC[C@H]2CC[C@H](N3C(=S)N(c4ccc(C#N)c(C(F)(F)F)c4)C(=O)C3(C)C)CC2)C[C@H](C)N1CC(=O)Nc1cccc(NC2CCC(=O)NC2=O)c1 (some centres unmarked) [Cmpd 17, hydrochloride]"
quantity_name = "DC50"
result_value = "10 to 100 nM"


# context switch: different molecule, same DC50
**Q:** Name the reported DC50 value associated with the molecule CC1(C)C(=O)N(c2cnc(C#N)c(C(F)(F)F)c2)C(=S)N1[C@H]1CC[C@H](OCCN2CCN(CC(=O)Nc3cccc(NC4CCC(=O)NC4=O)c3)[C@@H](C(F)(F)F)C2)CC1 (some centres unmarked) [Cmpd 20, hydrochloride]
**A:** ≤ 5 nM
